// provenance: patent US20190264194A1

- TEST TARGET: T1, streptavidin (UniProt P22629 37-163, limits assumed)
- T1 construct: Used as phycoerythrin conjugate or on coated beads; also called SA; streptavidin-phycoerythrin
- T1 sequence (P22629 37-163 limits assumed): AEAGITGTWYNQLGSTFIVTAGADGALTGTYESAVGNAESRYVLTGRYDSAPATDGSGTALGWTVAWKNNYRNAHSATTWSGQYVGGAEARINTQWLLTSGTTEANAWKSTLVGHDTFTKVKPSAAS
- ASSAY PROCEDURE: equilibrium dissociation constant of a selected displayed peptide, whole-cell flow cytometry
TEST READOUT: pKd
Kindly note that pKd refers to -log10 of the concentration in mol/L and answer with the value alone.

# binder TVLICMNICWTGETQ (Insert only) [SA-3] ; its pKd = 8.40
